Biological target: Cytochrome P450 2C9 (Homo sapiens, UniProt P11712)
Sequence (P11712 whole entry): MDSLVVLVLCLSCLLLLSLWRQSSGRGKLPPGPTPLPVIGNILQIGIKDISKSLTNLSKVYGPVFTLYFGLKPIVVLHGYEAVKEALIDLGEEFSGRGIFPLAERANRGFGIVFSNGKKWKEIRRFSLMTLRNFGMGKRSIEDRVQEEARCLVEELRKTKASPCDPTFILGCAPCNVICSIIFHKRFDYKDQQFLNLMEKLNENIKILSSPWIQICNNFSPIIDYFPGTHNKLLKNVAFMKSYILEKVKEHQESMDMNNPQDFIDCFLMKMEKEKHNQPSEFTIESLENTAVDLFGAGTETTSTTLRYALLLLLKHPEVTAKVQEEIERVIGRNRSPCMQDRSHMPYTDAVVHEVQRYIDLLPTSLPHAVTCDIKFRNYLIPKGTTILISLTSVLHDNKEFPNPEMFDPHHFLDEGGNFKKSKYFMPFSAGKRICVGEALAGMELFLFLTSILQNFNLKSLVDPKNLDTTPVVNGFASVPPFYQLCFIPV
Assay: Inhibition of CYP2C9 in human liver microsomes at 1 uM
Type: ADME
parameter measured: inhibition (INH) (%)

O=C(N[C@H](Cc1c[nH]c2ccccc12)C(=O)Nc1ccncc1)c1ccc(-c2cc(C(F)(F)F)ccc2F)cc1F; 90
O=C(N[C@H](Cc1c[nH]c2ccccc12)C(=O)Nc1ccncc1)c1ccc(-c2cccc(C(F)(F)F)c2)cc1F; 92
O=C(N[C@H](Cc1c[nH]c2ccccc12)C(=O)Nc1ccncc1)c1ccc(-c2ccc(F)c(C(F)(F)F)c2)cc1F; 96
O=C(N[C@H](Cc1c[nH]c2ccccc12)C(=O)Nc1ccncc1)c1ccc(N2CCN(c3cccc(F)c3)CC2)cc1F; 95
O=C(N[C@H](Cc1c[nH]c2ccccc12)C(=O)Nc1ccncc1)c1ccc(-c2ccc(F)c(Cl)c2)cc1F; 93

----------
Experiment: AUClast in mouse at 50 mg/kg, po in 20% Kolliphor
Assay type: ADME, organism-based
Design: time 0 - last, dose 50 mg/kg, route oral
Details: plasma
parameter measured: AUC(0-t) (µM·h)

The cases that follow already have their AUC(0-t) on record.
O=C(N[C@H](Cc1c[nH]c2ccccc12)C(=O)Nc1ccncc1)c1ccc(N2CCN(c3ccc(F)cc3F)CC2)cc1F; 29.6
O=C(N[C@H](Cc1c[nH]c2ccccc12)C(=O)Nc1ccncc1)c1ccc(-c2cc(C(F)(F)F)ccc2F)cc1F; 106

A. O=C(N[C@H](Cc1c[nH]c2ccccc12)C(=O)Nc1ccncc1)c1ccc(-c2ccc(F)c(F)c2)cc1F
B. O=C(N[C@H](Cc1c[nH]c2ccccc12)C(=O)Nc1ccncc1)c1ccc(-c2ccc(F)c(C(F)(F)F)c2)cc1F
C. O=C(N[C@H](Cc1c[nH]c2ccccc12)C(=O)Nc1ccncc1)c1ccc(N2CCN(c3ccc(F)c(F)c3)CC2)cc1F
D. O=C(N[C@H](Cc1c[nH]c2ccccc12)C(=O)Nc1ccncc1)c1ccc(-c2ccc(F)c(Cl)c2)cc1F
Ask | Please order the records by their reported AUC(0-t), lowest number first. The labels, placed in the requested order, form the answer.
Reply | C, A, B, D

----------
Target: Cytochrome P450 3A4 (Homo sapiens, UniProt P08684)
Sequence (P08684 whole entry): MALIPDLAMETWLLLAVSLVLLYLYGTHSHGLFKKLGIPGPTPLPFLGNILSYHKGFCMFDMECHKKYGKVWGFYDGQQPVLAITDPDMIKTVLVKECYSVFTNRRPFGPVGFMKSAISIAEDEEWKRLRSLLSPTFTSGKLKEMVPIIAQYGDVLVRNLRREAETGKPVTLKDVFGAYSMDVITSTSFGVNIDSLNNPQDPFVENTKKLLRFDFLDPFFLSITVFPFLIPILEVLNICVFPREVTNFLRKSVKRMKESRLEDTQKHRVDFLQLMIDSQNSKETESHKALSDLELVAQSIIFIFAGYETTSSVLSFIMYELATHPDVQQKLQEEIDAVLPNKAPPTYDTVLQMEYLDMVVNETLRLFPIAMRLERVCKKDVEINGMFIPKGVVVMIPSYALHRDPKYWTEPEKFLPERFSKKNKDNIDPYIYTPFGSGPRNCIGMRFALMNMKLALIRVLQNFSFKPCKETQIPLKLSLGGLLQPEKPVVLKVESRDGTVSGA
Assay: Inhibition of CYP3A4 in human liver microsomes at 1 uM
Assay type: ADME
parameter measured: inhibition (INH) (%)

O=C(N[C@H](Cc1c[nH]c2ccccc12)C(=O)Nc1ccncc1)c1ccc(-c2cccc(C(F)(F)F)c2)cc1F; 7
O=C(N[C@H](Cc1c[nH]c2ccccc12)C(=O)Nc1ccncc1)c1ccc(-c2ccc(F)c(Cl)c2)cc1F; 29

P. O=C(N[C@H](Cc1c[nH]c2ccccc12)C(=O)Nc1ccncc1)c1ccc(-c2ccc(F)c(C(F)(F)F)c2)cc1F
Q. O=C(N[C@H](Cc1c[nH]c2ccccc12)C(=O)Nc1ccncc1)c1ccc(N2CCN(c3cccc(F)c3)CC2)cc1F
Ask | Which record would sort first by descending inhibition (INH), P or Q ? Reply briefly: the label of your chosen item.
Reply | Q

----------
System: Trypanosoma cruzi
Experiment: Antitrypanosomal activity against Trypanosoma cruzi Y luc infected in mouse assessed as inhibition of parasitemia at 40 mg/kg, ip bid in 60% DMSO administered for 4 consecutive days starting on day 3 of infection measured on day 7 post infection relative to vehicle-treated control
parameter measured: inhibition in vivo at 40 mg/kg (%)
Answer with a number only, understood to be in %.

The cases that follow already have their inhibition in vivo at 40 mg/kg on record.
O=C(N[C@H](Cc1c[nH]c2ccccc12)C(=O)Nc1ccncc1)c1ccc(-c2cc(F)ccc2F)cc1F; 35.4
CC(=O)N1CCN(c2ccc(C(=O)N[C@H](Cc3c[nH]c4ccccc34)C(=O)Nc3ccncc3)c(F)c2)CC1; 52

Ask | Query: inhibition in vivo at 40 mg/kg; subject: O=C(N[C@H](Cc1c[nH]c2ccccc12)C(=O)Nc1ccncc1)c1ccc(-c2ccc(OCc3ccc(F)cc3)c(F)c2)cc1F
Reply | 96.9

Ask | How about this molecule: O=C(N[C@H](Cc1c[nH]c2ccccc12)C(=O)Nc1ccncc1)c1ccc(-c2cccc(F)c2)cc1F
Reply | 51.6

Ask | How about this molecule: O=C(N[C@H](Cc1c[nH]c2ccccc12)C(=O)Nc1ccncc1)c1ccc(N2CCN(c3cccc(F)c3)CC2)cc1F
Reply | 97.9

Ask | How about this molecule: O=C(N[C@H](Cc1c[nH]c2ccccc12)C(=O)Nc1ccncc1)c1ccc(-c2ccc(F)c(F)c2)cc1F
Reply | 83.6

Ask | How about this molecule: O=C(N[C@H](Cc1c[nH]c2ccccc12)C(=O)Nc1ccncc1)c1ccc(-c2cccc(C(F)(F)F)c2)cc1F
Reply | 98.5

----------
Assay: Tmax in mouse at 50 mg/kg, po in 20% HP-beta-CD
Type: ADME, organism-based
Design: dose 50 mg/kg, route oral
Conditions: in vivo
parameter measured: Tmax (h)

O=C(N[C@H](Cc1c[nH]c2ccccc12)C(=O)Nc1ccncc1)c1ccc(-c2cc(C(F)(F)F)ccc2F)cc1F; 2
O=C(N[C@H](Cc1c[nH]c2ccccc12)C(=O)Nc1ccncc1)c1ccc(N2CCN(c3ccc(F)cc3F)CC2)cc1F; 4.67
O=C(N[C@H](Cc1c[nH]c2ccccc12)C(=O)Nc1ccncc1)c1ccc(-c2ccc(F)c(Cl)c2)cc1F; 2.67

a. O=C(N[C@H](Cc1c[nH]c2ccccc12)C(=O)Nc1ccncc1)c1ccc(-c2ccc(F)c(C(F)(F)F)c2)cc1F
b. O=C(N[C@H](Cc1c[nH]c2ccccc12)C(=O)Nc1ccncc1)c1ccc(N2CCN(c3ccc(F)c(F)c3)CC2)cc1F
Ask | // compare measured Tmax between a and b ; output the lower one Reply briefly: the label of your chosen item.
Reply | b
(b: 2.67 h, a: 4.67 h)

----------
Test: Clearance in mouse at 50 mg/kg, po in 20% Kolliphor
Assay type: ADME, organism-based
Set-up: dose 50 mg/kg, route oral
Details: in vivo
parameter measured: CL/F (mL/min/kg)

O=C(N[C@H](Cc1c[nH]c2ccccc12)C(=O)Nc1ccncc1)c1ccc(-c2ccc(F)c(F)c2)cc1F; 53.8

a. O=C(N[C@H](Cc1c[nH]c2ccccc12)C(=O)Nc1ccncc1)c1ccc(-c2ccc(F)c(C(F)(F)F)c2)cc1F
b. O=C(N[C@H](Cc1c[nH]c2ccccc12)C(=O)Nc1ccncc1)c1ccc(N2CCN(c3ccc(F)cc3F)CC2)cc1F
c. O=C(N[C@H](Cc1c[nH]c2ccccc12)C(=O)Nc1ccncc1)c1ccc(N2CCN(c3ccc(F)c(F)c3)CC2)cc1F
d. O=C(N[C@H](Cc1c[nH]c2ccccc12)C(=O)Nc1ccncc1)c1ccc(-c2ccc(F)c(Cl)c2)cc1F
Ask | Please order the records by their reported CL/F, lowest number first. The labels, placed in the requested order, form the answer.
Reply | d, a, b, c

----------
Target: Cytochrome P450 1A2 (Homo sapiens)
Sequence (P05177 whole entry): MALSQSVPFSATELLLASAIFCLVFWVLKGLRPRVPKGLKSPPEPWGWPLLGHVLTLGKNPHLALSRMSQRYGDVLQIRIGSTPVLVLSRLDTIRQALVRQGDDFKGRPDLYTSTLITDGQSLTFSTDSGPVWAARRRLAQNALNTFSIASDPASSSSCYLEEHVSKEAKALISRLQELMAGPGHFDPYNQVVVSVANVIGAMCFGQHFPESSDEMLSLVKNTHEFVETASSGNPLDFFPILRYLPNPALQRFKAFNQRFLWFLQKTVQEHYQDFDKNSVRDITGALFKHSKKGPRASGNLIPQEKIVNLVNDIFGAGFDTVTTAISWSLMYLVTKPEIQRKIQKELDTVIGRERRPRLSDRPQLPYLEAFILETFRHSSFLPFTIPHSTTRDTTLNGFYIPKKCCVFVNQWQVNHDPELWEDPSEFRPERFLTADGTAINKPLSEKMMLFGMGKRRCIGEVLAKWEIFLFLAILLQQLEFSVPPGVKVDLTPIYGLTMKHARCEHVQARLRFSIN
Assay: Inhibition of CYP1A2 in human liver microsomes at 1 uM
Assay type: ADME
parameter measured: inhibition (INH) (%)

The cases that follow already have their inhibition (INH) on record.
O=C(N[C@H](Cc1c[nH]c2ccccc12)C(=O)Nc1ccncc1)c1ccc(-c2cc(C(F)(F)F)ccc2F)cc1F; -5
O=C(N[C@H](Cc1c[nH]c2ccccc12)C(=O)Nc1ccncc1)c1ccc(-c2ccc(F)c(C(F)(F)F)c2)cc1F; 2

1. O=C(N[C@H](Cc1c[nH]c2ccccc12)C(=O)Nc1ccncc1)c1ccc(-c2ccc(F)c(Cl)c2)cc1F
2. O=C(N[C@H](Cc1c[nH]c2ccccc12)C(=O)Nc1ccncc1)c1ccc(N2CCN(c3cccc(F)c3)CC2)cc1F
3. O=C(N[C@H](Cc1c[nH]c2ccccc12)C(=O)Nc1ccncc1)c1ccc(-c2cccc(C(F)(F)F)c2)cc1F
Ask | Please order the records by their reported inhibition (INH), lowest number first. The labels, placed in the requested order, form the answer.
Reply | 3, 1, 2

----------
Test system: Liver microsome
Assay: Half life in rat liver microsomes
Format: ADME
parameter measured: t1/2 (min)

The cases that follow already have their t1/2 on record.
O=C(N[C@H](Cc1c[nH]c2ccccc12)C(=O)Nc1ccncc1)c1ccc(-c2ccc(F)c(C(F)(F)F)c2)cc1F; 27
O=C(N[C@H](Cc1c[nH]c2ccccc12)C(=O)Nc1ccncc1)c1ccc(-c2cc(C(F)(F)F)ccc2F)cc1F; 18
CC(=O)N1CCN(c2ccc(C(=O)N[C@H](Cc3c[nH]c4ccccc34)C(=O)Nc3ccncc3)c(F)c2)CC1; 18
O=C(N[C@H](Cc1c[nH]c2ccccc12)C(=O)Nc1ccncc1)c1ccc(-c2ccc(F)c(Cl)c2)cc1F; 25
O=C(N[C@H](Cc1c[nH]c2ccccc12)C(=O)Nc1ccncc1)c1ccc(-c2ccc(OCc3ccc(F)cc3)c(F)c2)cc1F; 39
O=C(N[C@H](Cc1c[nH]c2ccccc12)C(=O)Nc1ccncc1)c1ccc(N2CCN(c3cccc(Cl)c3)CC2)cc1F; 21

a. O=C(N[C@H](Cc1c[nH]c2ccccc12)C(=O)Nc1ccncc1)c1ccc(N2CCN(c3cccc(F)c3)CC2)cc1F
b. O=C(N[C@H](Cc1c[nH]c2ccccc12)C(=O)Nc1ccncc1)c1ccc(-c2cccc(C(F)(F)F)c2)cc1F
Ask | Which record would sort first by descending t1/2, a or b ? Reply briefly: the label of your chosen item.
Reply | b
